Hello, the source for this data is ChEMBL document CHEMBL4414561, in case you need it.

# Tested target: Acetylcholinesterase (Electrophorus electricus)
# Sequence (O42275 whole entry): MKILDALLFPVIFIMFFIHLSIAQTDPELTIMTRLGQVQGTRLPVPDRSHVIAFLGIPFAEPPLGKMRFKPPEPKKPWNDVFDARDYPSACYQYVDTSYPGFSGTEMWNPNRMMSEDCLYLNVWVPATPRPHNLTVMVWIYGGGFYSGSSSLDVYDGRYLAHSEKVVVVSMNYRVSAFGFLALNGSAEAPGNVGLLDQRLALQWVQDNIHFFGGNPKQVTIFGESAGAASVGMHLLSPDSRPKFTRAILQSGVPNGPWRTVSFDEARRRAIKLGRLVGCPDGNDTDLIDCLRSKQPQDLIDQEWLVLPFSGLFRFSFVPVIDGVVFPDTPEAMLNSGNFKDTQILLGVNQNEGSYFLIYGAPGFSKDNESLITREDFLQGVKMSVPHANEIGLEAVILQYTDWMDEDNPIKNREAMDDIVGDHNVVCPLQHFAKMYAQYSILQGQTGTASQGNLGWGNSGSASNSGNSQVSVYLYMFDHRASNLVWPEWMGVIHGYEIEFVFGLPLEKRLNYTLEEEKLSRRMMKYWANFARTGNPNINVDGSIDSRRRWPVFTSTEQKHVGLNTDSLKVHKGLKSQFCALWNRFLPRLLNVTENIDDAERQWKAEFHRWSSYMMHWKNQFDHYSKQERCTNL
# Measurement notes: Inhibition of electric eel AChE at 50 uM incubated for 15 mins by Ellman's method relative to control
Dear colleague, classification is by inhibition, with ranges listed here: class 0: < 30%; class 1: ≥ 30% and < 80%; class 2: ≥ 80%

Please report the category associated with `COP(=S)(OC)SCn1nnc2ccccc2c1=O` , nothing else.
class 0

Please report the category associated with `COc1ccc(-c2cc3c(c(=O)o2)C[C@H]2[C@@](C)(CC[C@@]4(O)C(C)(C)C(=O)CC[C@]24C)O3)cc1` , nothing else.
class 2

Please report the category associated with CC(C)NP(=O)(NC(C)C)OP(=O)(NC(C)C)NC(C)C [TETRAISOPROPYL PYROPHOSPHORAMIDE] , nothing else.
class 0

Please report the category associated with `CNC(=O)Oc1ccc2c(c1)[C@]1(C)CCN(C)[C@@H]1N2C` , nothing else.
class 2

Please report the category associated with `COc1ccc(-c2cc3c(c(=O)o2)C[C@]2(O)[C@@]4(C)C(=O)C[C@@H](O)C(C)(C)[C@]4(O)CC[C@@]2(C)O3)cc1` , nothing else.
class 2

Please report the category associated with `COc1ccc(-c2cc3c(c(=O)o2)C[C@@H]2[C@@]4(C)CCC(=O)C(C)(C)[C@@H]4CC[C@@]2(C)O3)cc1` , nothing else.
class 0

Please report the category associated with `COc1ccc(-c2cc3c(c(=O)o2)C[C@@H]2[C@@]4(C)CC[C@H](O)C(C)(C)[C@@H]4CC[C@@]2(C)O3)cc1` , nothing else.
class 0

Please report the category associated with `COc1ccc(-c2cc3c(c(=O)o2)C[C@]2(O)[C@@]4(C)CC[C@@H](OC(C)=O)C(C)(C)[C@]4(O)CC[C@@]2(C)O3)cc1` , nothing else.
class 1

Please report the category associated with `COc1ccc(-c2cc3c(c(=O)o2)C[C@H]2[C@@](C)(CC[C@@]4(O)C(C)(C)[C@@H](O)CC[C@]24C)O3)cc1` , nothing else.
class 1

----------
I'd appreciate it if you could supply inhibition values for the items below.
# Tested target: Cholinesterase (Equus caballus) (UniProt P81908)
# Sequence (P81908 whole entry): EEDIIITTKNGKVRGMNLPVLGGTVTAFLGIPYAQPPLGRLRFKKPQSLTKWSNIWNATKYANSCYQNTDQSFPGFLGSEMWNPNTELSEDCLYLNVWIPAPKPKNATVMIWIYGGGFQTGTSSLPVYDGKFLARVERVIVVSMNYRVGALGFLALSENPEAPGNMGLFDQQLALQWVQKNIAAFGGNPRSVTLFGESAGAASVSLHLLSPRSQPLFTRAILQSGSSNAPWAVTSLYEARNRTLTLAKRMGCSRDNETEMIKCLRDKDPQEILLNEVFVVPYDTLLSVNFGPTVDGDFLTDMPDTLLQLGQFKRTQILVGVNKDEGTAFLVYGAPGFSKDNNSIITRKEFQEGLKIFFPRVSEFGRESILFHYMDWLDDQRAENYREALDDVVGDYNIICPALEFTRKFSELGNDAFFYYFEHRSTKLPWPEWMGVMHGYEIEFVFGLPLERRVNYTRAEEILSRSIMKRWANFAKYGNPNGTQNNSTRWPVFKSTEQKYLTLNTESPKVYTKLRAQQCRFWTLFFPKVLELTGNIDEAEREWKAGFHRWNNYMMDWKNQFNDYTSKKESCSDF
# Measurement notes: Inhibition of equine serum BChE at 50 uM using S-butyrylthiocholine iodide as substrate incubated for 15 mins by Ellman's method relative to control
The response must be a number in % with no trailing unit.

Item CC(C)NP(=O)(NC(C)C)OP(=O)(NC(C)C)NC(C)C [TETRAISOPROPYL PYROPHOSPHORAMIDE] has what recorded inhibition?
15.1

Item `COc1ccc(-c2cc(O)c(C/C=C(\C)CC/C=C(\C)CCC=C(C)C)c(=O)o2)cc1` has what recorded inhibition?
0

Item `COc1ccc(-c2cc3c(c(=O)o2)C[C@]2(O)[C@@]4(C)CC[C@H](O)C(C)(C)[C@]4(O)CC[C@@]2(C)O3)cc1` has what recorded inhibition?
4.7

Item `COc1ccc(-c2cc3c(c(=O)o2)C[C@H]2[C@@](C)(CC[C@@]4(O)C(C)(C)[C@@H](O)CC[C@]24C)O3)cc1` has what recorded inhibition?
7

----------
# Tested target: Cholinesterase (Equus caballus) (UniProt P81908)
# Measurement notes: Inhibition of equine serum BChE at 50 uM using S-butyrylthiocholine iodide as substrate incubated for 15 mins by Ellman's method relative to control
Note to self: values exactly at 5% are Satisfied. So inhibition at or above 5% is Satisfied, below is Not satisfied.

Decide: inhibition of COc1ccc(-c2cc(O)c(C/C=C(\C)CC/C=C(\C)CCC(O)C(C)(C)O)c(=O)o2)cc1 (stereo not drawn) >= 5%?
Not satisfied

Decide: inhibition of `COP(=S)(OC)SCn1nnc2ccccc2c1=O` >= 5%?
Not satisfied

Decide: inhibition of `COc1ccc(-c2cc3c(c(=O)o2)C[C@H]2[C@@](C)(CC[C@@]4(O)C(C)(C)C(=O)CC[C@]24C)O3)cc1` >= 5%?
Satisfied

Decide: inhibition of `CNC(=O)Oc1ccc2c(c1)[C@]1(C)CCN(C)[C@@H]1N2C` >= 5%?
Satisfied

Decide: inhibition of `COc1ccc(-c2cc3c(c(=O)o2)C[C@@H]2[C@@]4(C)CC[C@H](O)C(C)(C)[C@@H]4CC[C@@]2(C)O3)cc1` >= 5%?
Not satisfied

Decide: inhibition of `COc1ccc(-c2cc3c(c(=O)o2)C[C@]2(O)[C@@]4(C)[C@H](O)C[C@@H](O)C(C)(C)[C@]4(O)CC[C@@]2(C)O3)cc1` >= 5%?
Not satisfied

Decide: inhibition of `COc1ccc(-c2cc3c(c(=O)o2)C[C@]2(O)[C@@]4(C)[C@H](O)CC(=O)C(C)(C)[C@@]4(O)CC[C@@]2(C)O3)cc1` >= 5%?
Not satisfied

Decide: inhibition of `COc1ccc(-c2cc3c(c(=O)o2)C[C@]2(O)[C@@]4(C)C(=O)C[C@@H](O)C(C)(C)[C@]4(O)CC[C@@]2(C)O3)cc1` >= 5%?
Not satisfied

----------
# Tested target: Acetylcholinesterase (Electrophorus electricus)
# label = label 1 if IC50 < 4 µM else label 0

Lab log: compare recorded IC50 with 4 µM; is it strictly lower for CC(C)NP(=O)(NC(C)C)OP(=O)(NC(C)C)NC(C)C [TETRAISOPROPYL PYROPHOSPHORAMIDE] ?
label 0

Lab log: compare recorded IC50 with 4 µM; is it strictly lower for `COc1ccc(-c2cc3c(c(=O)o2)C[C@]2(O)[C@@]4(C)C(=O)C[C@@H](O)C(C)(C)[C@]4(O)CC[C@@]2(C)O3)cc1` ?
label 1

Lab log: compare recorded IC50 with 4 µM; is it strictly lower for `COc1ccc(-c2cc3c(c(=O)o2)C[C@@H]2[C@@]4(C)CCC(=O)C(C)(C)[C@@H]4CC[C@@]2(C)O3)cc1` ?
label 0

Lab log: compare recorded IC50 with 4 µM; is it strictly lower for `COc1ccc(-c2cc3c(c(=O)o2)C[C@H]2[C@@]4(C)C=CC(=O)C(C)(C)[C@@H]4CC[C@@]2(C)O3)cc1` ?
label 0

Lab log: compare recorded IC50 with 4 µM; is it strictly lower for `COc1ccc(-c2cc3c(c(=O)o2)C[C@H]2[C@@](C)(CC[C@@]4(O)C(C)(C)C(=O)CC[C@]24C)O3)cc1` ?
label 1

Lab log: compare recorded IC50 with 4 µM; is it strictly lower for `COc1ccc(-c2cc3c(c(=O)o2)C[C@]2(O)[C@@]4(C)[C@H](O)CC(=O)C(C)(C)[C@@]4(O)CC[C@@]2(C)O3)cc1` ?
label 0

Lab log: compare recorded IC50 with 4 µM; is it strictly lower for `COc1ccc(-c2cc3c(c(=O)o2)C[C@]2(O)[C@@]4(C)[C@H](O)C[C@@H](O)C(C)(C)[C@]4(O)CC[C@@]2(C)O3)cc1` ?
label 0

Lab log: compare recorded IC50 with 4 µM; is it strictly lower for `COc1ccc(-c2cc(O)c(C/C=C(\C)CC/C=C(\C)CCC=C(C)C)c(=O)o2)cc1` ?
label 0

Lab log: compare recorded IC50 with 4 µM; is it strictly lower for COc1ccc(-c2cc(O)c(C/C=C(\C)CC/C=C(\C)CCC(O)C(C)(C)O)c(=O)o2)cc1 (stereo not given) ?
label 0

----------
# Tested target: Acetylcholinesterase (Electrophorus electricus) (UniProt O42275)
# Sequence (O42275 24-633 limits assumed): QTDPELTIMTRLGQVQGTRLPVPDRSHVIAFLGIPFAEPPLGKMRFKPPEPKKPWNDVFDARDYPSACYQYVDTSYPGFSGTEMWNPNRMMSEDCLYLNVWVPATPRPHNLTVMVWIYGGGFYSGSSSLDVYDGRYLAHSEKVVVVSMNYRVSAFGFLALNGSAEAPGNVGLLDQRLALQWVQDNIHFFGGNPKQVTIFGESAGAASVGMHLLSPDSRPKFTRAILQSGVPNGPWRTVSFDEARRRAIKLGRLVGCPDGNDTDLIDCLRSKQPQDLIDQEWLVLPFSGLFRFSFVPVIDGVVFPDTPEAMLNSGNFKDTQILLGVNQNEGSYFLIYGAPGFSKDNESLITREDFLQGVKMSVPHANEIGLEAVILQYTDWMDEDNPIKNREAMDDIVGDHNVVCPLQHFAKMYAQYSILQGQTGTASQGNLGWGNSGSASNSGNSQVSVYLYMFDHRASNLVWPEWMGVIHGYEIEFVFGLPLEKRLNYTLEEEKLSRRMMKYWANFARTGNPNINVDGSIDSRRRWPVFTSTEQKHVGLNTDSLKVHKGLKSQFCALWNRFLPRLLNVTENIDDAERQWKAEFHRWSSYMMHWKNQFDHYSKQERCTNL
# Measurement notes: Inhibition of electric eel AChE at 50 uM incubated for 15 mins by Ellman's method relative to control
Measurement name: inhibition (%)
The response must be a number in % with no trailing unit.

Item `COc1ccc(-c2cc3c(c(=O)o2)C[C@]2(O)[C@@]4(C)[C@H](O)CC(=O)C(C)(C)[C@@]4(O)CC[C@@]2(C)O3)cc1` has what recorded inhibition?
83.6

Item `COc1ccc(-c2cc3c(c(=O)o2)C[C@H]2[C@@]4(C)C=CC(=O)C(C)(C)[C@@H]4CC[C@@]2(C)O3)cc1` has what recorded inhibition?
40.3

Item `COc1ccc(-c2cc3c(c(=O)o2)C[C@]2(O)[C@@]4(C)CC[C@@H](O)C(C)(C)[C@]4(O)CC[C@@]2(C)O3)cc1` has what recorded inhibition?
83.4

Item `COc1ccc(-c2cc(O)c(C/C=C(\C)CC/C=C(\C)CCC=C(C)C)c(=O)o2)cc1` has what recorded inhibition?
4.3

Item COc1ccc(-c2cc(O)c(C/C=C(\C)CC/C=C(\C)CCC(O)C(C)(C)O)c(=O)o2)cc1 (configuration not stated) has what recorded inhibition?
34.1

Item `COc1ccc(-c2cc3c(c(=O)o2)C[C@]2(O)[C@@]4(C)CCC(=O)C(C)(C)[C@]4(O)CC[C@@]2(C)O3)cc1` has what recorded inhibition?
96.6

Item `COc1ccc(-c2cc3c(c(=O)o2)C[C@]2(O)[C@@]4(C)CC[C@H](O)C(C)(C)[C@]4(O)CC[C@@]2(C)O3)cc1` has what recorded inhibition?
89.4
